# Lookup of reported TGI keyed by entry
test system: UACC-257 melanoma; test: NCI tumour cell line growth inhibition, 48 h
Where a SMILES comes first, the peptide text is derived from it. Bridges are numbered along the chain shown (N, C = ends). [ ]: non-standard residue; d: D form. The star is where a group is joined. ξ: configuration not given here. ξNMePhe(4-NMe2) = CNC(Cc1ccc(N(C)C)cc1)C(=O)O; Picolinoyl(3-OH) = O=C(c1ncccc1O)*; ξPip(4-oxo) = O=C1CCNC(C(=O)O)C1; Phg = N[CH](C(=O)O)c1ccccc1; Abu = CC[CH](N)C(=O)O

>  <MOLECULE>
O=C1NC(=NC2CCCCC2)C2(CCN(CCCC3(c4ccc(F)cc4)OCCO3)CC2)N1c1ccccc1

>  <SYSTEM>
UACC-257 melanoma

>  <TGI>
28.7 µM

$$$$
>  <MOLECULE>
CC(=O)OC[C@@H](OC(C)=O)[C@@H](OC(C)=O)[C@H]1OC[C@@H]2C[C@H]([C@H]1OC(C)=O)N(Cc1ccccc1)O2

>  <SYSTEM>
UACC-257 melanoma

>  <TGI>
> 100 µM

$$$$
>  <MOLECULE>
CCC1NC(=O)C(NC(=O)c2ncccc2O)C(C)OC(=O)C(c2ccccc2)NC(=O)C2CC(=O)CCN2C(=O)C(Cc2ccc(N(C)C)cc2)N(C)C(=O)C2CCCN2C1=O (stereo unspecified) (tested in a mixture with another compound) ({Picolinoyl(3-OH)}-T[Abu]P[ξNMePhe(4-NMe2)][ξPip(4-oxo)][Phg]; ester 1-C; configuration not given here)

>  <SYSTEM>
UACC-257 melanoma

>  <TGI>
22.3 µM

$$$$
>  <MOLECULE>
CC(C)C[C@@H]1NC(=O)[C@@H]2CCCN2C(=O)[C@@H]2CCCN2C(=O)[C@H](CC(C)C)NC(=O)[C@H](CO)NC(=O)[C@H](CCCCN)NC(=O)[C@H]([C@H](C)O)NC(=O)[C@@H]2CCCC[C@@H](NC1=O)C(=O)N[C@@H](Cc1ccccc1)C(=O)N1CCC[C@H]1C(=O)N[C@@H](CC(=O)O)C(=O)NCC(=O)N[C@@H](CCCN=C(N)N)C(=O)N2

>  <SYSTEM>
UACC-257 melanoma

>  <TGI>
> 50 µM

$$$$
>  <MOLECULE>
N#CC(C#N)=C1SCC(=O)CS1

>  <SYSTEM>
UACC-257 melanoma

>  <TGI>
> 100 µM

$$$$

Req: Give the value of TGI reported for the following: `CN1CCN(CCCCN2c3ccccc3Sc3ccc(N=[N+]=[N-])cc32)CC1`
Resp: 4.22 µM

###

# Lookup of reported TGI keyed by entry
system: KM12 colon; test: NCI tumour cell line growth inhibition, 48 h
Where a SMILES comes first, the peptide text is derived from it. The star is where a group is joined. Cbz = O=C(OCc1ccccc1)*

Below: 7 compounds and their reported TGI.
>  <COMPOUND>
O=C(Cc1ccccc1)NNc1nc(NNC(=O)c2ccncc2)nc(Nc2ccc(Cl)cc2)n1

>  <ENDPOINT_VALUE>
> 10 µM

$$$$
>  <COMPOUND>
CS(=O)(=O)Nc1cc(-c2ccc3ncnc(Nc4ccc5c(cnn5Cc5ccccc5F)c4)c3c2)cnc1Cl

>  <ENDPOINT_VALUE>
8.1 µM

$$$$
>  <COMPOUND>
O=CC1C[C@@H](N2C(=O)O[C@@H](c3ccccc3)[C@H]2c2ccccc2)[C@@H]1COCc1ccccc1 (stereo partly drawn)

>  <ENDPOINT_VALUE>
> 100 µM

$$$$
>  <COMPOUND>
Cc1cc(=O)oc2cc(OCc3nc4ccccc4c(=O)[nH]3)ccc12

>  <ENDPOINT_VALUE>
> 100 µM

$$$$
>  <COMPOUND>
Nc1nc(Cl)cc(NCCCCCCCCCCCCNc2cc(Cl)nc(N)n2)n1

>  <ENDPOINT_VALUE>
> 100 µM

$$$$
>  <COMPOUND>
CCOC(=O)C(CC(=O)OC)NC(=O)C(CC(=O)OC)NC(=O)C(CC(=O)OC)NC(=O)C(CC(=O)OC)NC(=O)OCc1ccccc1 (stereo not drawn) (Cbz-D(OMe)D(OMe)D(OMe)D(OMe)-OEt; configuration not given here)

>  <ENDPOINT_VALUE>
> 100 µM

$$$$
>  <COMPOUND>
O/N=C1\CCc2cc3c(cc21)CCC3

>  <ENDPOINT_VALUE>
> 100 µM

$$$$

Req: Give the value of TGI reported for the following: Cc1nn(-c2nc3ccccc3[nH]2)c2c1C(c1ccc3c(c1)OCO3)CC(=O)N2 (stereo not drawn)
Resp: 5.45 µM

###

tested on: U251 CNS
Would you mind answering with one of these outcomes? active, inactive

Observe how each entry below is paired with its result.
>  <COMPOUND>
C=C(CNCCc1ccc(O)cc1)[C@@H]1CC[C@]2(COC3CCCCO3)CC[C@]3(C)[C@H](CC[C@@H]4[C@@]5(C)CCC(N)C(C)(C)[C@@H]5CC[C@]43C)[C@@H]12 (stereo partly specified)

>  <GROUP>
active

$$$$
>  <COMPOUND>
O=C1/C(=C/c2ccc(Cl)cc2)COc2ccc(O)c(O)c21

>  <GROUP>
inactive

$$$$
>  <COMPOUND>
CS(=O)(=O)Nc1cc(-c2ccc3ncnc(Nc4ccc5c(cnn5Cc5ccccc5F)c4)c3c2)cnc1Cl

>  <GROUP>
inactive

$$$$
>  <COMPOUND>
O=C(N/N=C\c1ccc(N(CCCl)CCCl)cc1Cl)c1cccnc1

>  <GROUP>
inactive

$$$$

Req: Test call, this compound: `COc1cccc2c(=O)c3c(sc12)c(NCCN(C)C)nc1ccccc13`
Resp: inactive

Req: Test call, this compound: CSC1C(=O)c2ccccc2/C(=N/Nc2nc3ccccc3s2)C1C (stereo unspecified)
Resp: inactive

Req: Test call, this compound: `C=C1C(=O)O[C@H]2[C@H]1CC/C(CNS(=O)(=O)c1cccc3ccccc13)=C\CC[C@@]1(C)O[C@@H]21`
Resp: inactive

Req: Test call, this compound: `CN(C)CCNC(=O)c1cc2c3ccccc3[nH]c2c2ncccc12`
Resp: inactive

Req: Test call, this compound: `Oc1ccc(N=Nc2ccc(N=Nc3ccccc3)cc2)cc1`
Resp: inactive

Req: Test call, this compound: Cc1nn(-c2nc3ccccc3[nH]2)c2c1C(c1ccc3c(c1)OCO3)CC(=O)N2 (stereo unspecified)
Resp: inactive

Req: Test call, this compound: `O=C(/C=C/c1ccc(C(F)(F)F)cc1)c1ccc(Nc2nc(NCCO)nc(N3CCOCC3)n2)cc1`
Resp: inactive

###

system: CAKI-1 renal; test: NCI tumour cell line growth inhibition, 48 h
EXPERIMENTAL_READOUT: GI50

>  <COMPOUND>
CCCCCCCCCCCC[n+]1ccc(C(N)=O)cc1

>  <GI50>
10.7 µM

$$$$
>  <COMPOUND>
N=C(N)c1ccc(-c2ccc(-c3cccs3)s2)nc1

>  <GI50>
2.13 µM

$$$$
>  <COMPOUND>
CS(=O)(=O)Nc1cc(-c2ccc3ncnc(Nc4ccc5c(cnn5Cc5ccccc5F)c4)c3c2)cnc1Cl

>  <GI50>
1.71 µM

$$$$

Req: Give the value of GI50 reported for the following: CC1=C(C(=O)Nc2ccc(F)c(Cl)c2)C(c2cccc(Oc3ccccc3)c2)NC(=O)N1 (centres undefined)
Resp: 18.6 µM

###

test system: MCF7 breast; experiment: NCI tumour cell line growth inhibition, 48 h
EXPERIMENTAL_READOUT: GI50

Below: 3 molecules and their reported GI50.
>  <CHEMICAL_SMILES>
CCCCCCCCCCCC[n+]1ccc(C(N)=O)cc1

>  <ENDPOINT_VALUE>
3700 nM

$$$$
>  <CHEMICAL_SMILES>
O=C(CCCCCCC(=O)Nc1ccc2c(c1)/C(=C/c1ccc[nH]1)C(=O)N2)NO

>  <ENDPOINT_VALUE>
437 nM

$$$$
>  <CHEMICAL_SMILES>
CN(C)c1ccc(O)c2c1C[C@H]1C[C@H]3[C@H](N(C)C)C(=O)C(C(N)=O)=C(O)[C@@]3(O)C(=O)C1=C2O

>  <ENDPOINT_VALUE>
10100 nM

$$$$

Req: Give the value of GI50 reported for the following: `CN(C)CCNC(=O)c1cc2c3ccccc3[nH]c2c2ncccc12`
Resp: 4530 nM

Req: Give the value of GI50 reported for the following: `N=C(N)c1ccc(-c2ccc(-c3cccs3)s2)nc1`
Resp: 1320 nM

Req: Give the value of GI50 reported for the following: `C=C1CC[C@@H]2[C@](C)(COC(C)=O)[C@H](OC(C)=O)CC[C@@]2(C)[C@@H]1C/C=C1/C(=O)OC[C@H]1OC(C)=O`
Resp: 1830 nM

###

tested on: 786-0 renal; test: NCI tumour cell line growth inhibition, 48 h
EXPERIMENTAL_READOUT: TGI (µM)
# number only, unit µM dropped from output

>  <MOLECULE>
CCCN(CCC)C(=O)[C@H](CC)[C@@H]1CC[C@@H](C)[C@@H]([C@H](C)[C@@H](O)[C@@H](C)C(=O)[C@H](CC)C2O[C@]3(C=C[C@@H](O)[C@]4(CC[C@@](C)([C@H]5CC[C@](O)(CC)[C@H](C)O5)O4)O3)[C@H](C)C[C@@H]2C)O1 (some centres undefined)

>  <ENDPOINT_VALUE>
9

$$$$

Req: Give the value of TGI reported for the following: `Oc1ccc(N=Nc2ccc(N=Nc3ccccc3)cc2)cc1`
Resp: 6.05

Req: Give the value of TGI reported for the following: `COCCNC(=O)c1ccc(-c2nc3ccc4[nH]ncc4c3c3c2CCCC3)cc1`
Resp: 16.2
